# Measurement target: T1, His-Strep-Mad1 597–718 (human, UniProt Q9Y6D9 597-718)
# T1 chain: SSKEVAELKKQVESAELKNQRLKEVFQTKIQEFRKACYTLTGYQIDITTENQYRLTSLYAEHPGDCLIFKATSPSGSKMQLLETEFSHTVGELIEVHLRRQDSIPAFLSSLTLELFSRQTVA
# Method summary: SPR
Square brackets hold non-standard residues; d marks the D form. Ends that are not written are not given here. * marks the point of attachment. Biotin = O=C1N[C@H]2[C@H](CS[C@H]2CCCCC(=O)*)N1; pS = N[C@@H](COP(=O)(O)O)C(=O)O; Nle = CCCC[C@H](N)C(=O)O

Binder: Biotin-VQATPSKVQP[pS]PTVHTKEALGFI[Nle]N[Nle]FQAPTL [CD1 peptide phosphorylated on Ser459]
Kd: 298 µM

These data points were gathered from paper PMC5472792.
